- Tested on: NCI/ADR-RES ovarian
- method description: NCI tumour cell line growth inhibition, 48 h
observation type: TGI

**Query** Given the compound CC(C)C1N(C)c2ccc(Cl)cc2[C@H]2c3ccccc3CCN12 (stereo partly specified) , what is its reported TGI?
**Result** > 100 µM

**Query** Given the compound CC(=O)N1CCn2c1nc1cc(Cl)ccc12 , what is its reported TGI?
**Result** > 100 µM

**Query** Given the compound COc1cc2cc(Oc3ccc(NC(=O)Nc4ccc(Cl)c(Cl)c4)cc3)c(C)nc2cc1OC , what is its reported TGI?
**Result** 16.9 µM

**Query** Given the compound COC(=O)[C@H]1CCCN1C(=O)[C@H]1CCCN1C(=O)[C@H](Cc1c[nH]c2ccccc12)NC(=S)Nc1cc(C(F)(F)F)cc(C(F)(F)F)c1 , what is its reported TGI?
**Result** > 100 µM

**Query** Given the compound COc1ccccc1C[C@@H]1OC2(C=CC(=O)C=C2)O[C@H]1Cc1ccccc1OC , what is its reported TGI?
**Result** 18.4 µM

**Query** Given the compound O=C(CN1C(=O)S/C(=C\C(Cl)=C\c2ccccc2)C1=O)NC1C=CS(=O)(=O)C1 (stereo unspecified) , what is its reported TGI?
**Result** > 100 µM

**Query** Given the compound C[Si](C)(c1ccccc1)[C@H]1CCCC=C1CCNC1c2ccccc2CCc2ccccc21 , what is its reported TGI?
**Result** > 100 µM

**Query** Given the compound CN(Cc1cnc2nc(N)nc(N)c2n1)c1ccc(C(=O)NC(CCC(=O)O)C(=O)O)cc1Br (stereo unspecified) , what is its reported TGI?
**Result** > 100 µM

**Query** Given the compound CCOC(=O)C1=C(C)N(c2ccc(OC)cc2)C2(O)C=CC(=O)C3=C(O)c4ccccc4C(=O)C312 (stereo unspecified) , what is its reported TGI?
**Result** 20.1 µM

**Query** Given the compound CCOc1cc(NC(C)=O)ccc1C(=O)NN1C(=O)CSC1c1ccccc1 (stereo unspecified) , what is its reported TGI?
**Result** > 100 µM

**Query** Given the compound COc1nnc2ccc(N3CCC(c4ccc(OCCN5CCN(C)C(=O)[C@H]5C)cc4)CC3)nn12 , what is its reported TGI?
**Result** > 100 µM

**Query** Given the compound COc1ccc(/C(C#N)=C2C=C/C(=N/O)c3ccccc3\2)cc1 , what is its reported TGI?
**Result** 2.94 µM

**Query** Given the compound CN(C)/N=C1\CC(c2ccccc2)C(C#N)(C#N)C1(C#N)C#N (stereo unspecified) , what is its reported TGI?
**Result** 72.1 µM

**Query** Given the compound Nc1ncnc2c1ncn2C1OC(CO)C(O)C1N (stereo unspecified) , what is its reported TGI?
**Result** > 100 µM

**Query** Given the compound O=C(OCC(Cl)(Cl)Cl)O[C@@H]1CCCC1(c1ccccc1)c1ccccc1 , what is its reported TGI?
**Result** > 100 µM

**Query** Given the compound CC1=C(C(=O)Nc2ccc(Cl)c(C(=O)OC(C)C)c2)SCCO1 , what is its reported TGI?
**Result** > 91.8 µM

**Query** Given the compound CN(C)c1cccc(NC2=NCCO2)c1 , what is its reported TGI?
**Result** > 100 µM

**Query** Given the compound COC(=O)c1ccc(Nc2nc3nc[nH]c3c(=O)[nH]2)cc1 , what is its reported TGI?
**Result** > 100 µM

**Query** Given the compound O=[N+]([O-])c1cccc(C2CC(c3ccccc3)=Nc3ccccc3S2)c1 (stereo unspecified) , what is its reported TGI?
**Result** > 100 µM

**Query** Given the compound O=C1c2ccccc2C(=O)c2c(OCCOCCO)cccc21 , what is its reported TGI?
**Result** > 100 µM

**Query** Given the compound CO[C@H]1C[C@@H]2CC[C@@H](C)[C@@](O)(O2)C(=O)C(=O)N2CCCC[C@H]2C(=O)O[C@H]([C@H](C)C[C@@H]2CC[C@@H](OCCO)[C@H](OC)C2)CC(=O)[C@H](C)C=C(C)[C@@H](O)[C@@H](OC)C(=O)[C@H](C)C[C@H](C)/C=C/C=C/C=C1C , what is its reported TGI?
**Result** 31.7 µM

**Query** Given the compound Cn1c(-c2c(N)n(CCCN3CCOCC3)c3nc(C#N)c(C#N)nc23)nc2ccccc21 , what is its reported TGI?
**Result** > 100 µM

**Query** Given the compound N#C/C(=C/NC(=S)c1ccncc1)C(N)=O , what is its reported TGI?
**Result** > 100 µM

**Query** Given the compound CCCC(CCN)(CCN)[N+](=O)[O-] , what is its reported TGI?
**Result** > 100 µM

**Query** Given the compound COc1ccc(/C=C/C2=NN(c3cccc(S(=O)(=O)O)c3)C3(C2)SCC(=O)N3c2nc3ccccc3s2)cc1 (stereo unspecified) , what is its reported TGI?
**Result** > 100 µM

**Query** Given the compound CCOC(=O)COc1ccc2c(C)cc(=O)oc2c1 , what is its reported TGI?
**Result** > 100 µM
